# System: A498 renal
# Test Description: NCI tumour cell line growth inhibition, 48 h
Measured Quantity: TGI (µM)
Numeric answer only, unit µM assumed.

Task item: Data request, read-out TGI, for OC1COC(n2c3ccc(Br)cc3c3ccc4c5ccccc5[nH]c4c32)C(O)C1O (stereo not given)
Reply: 13.9

Task item: Input S=c1[nH]c2ccc(Br)cc2c(=S)n1-c1ccccc1
Reply: 98.4

Task item: Input COc1c(N2CCN(CN3C(=O)C(=Nc4ccc(S(=O)(=O)Nc5ncccn5)cc4)c4ccccc43)C(C)C2)c(F)cc2c(=O)c(C(=O)O)cn(C3CC3)c12 (stereo not given)
Reply: 14.2

---

# Tested on: K-562 leukemia
# Test Description: NCI tumour cell line growth inhibition, 48 h; in the data active = GI50 below about 0.43 µM; inactive = the rest
Your response should consist of one outcome taken from 1 for active, -1 for inactive

Task item: Tell me the recorded outcome of this test for CC(C)(C)c1ccc(S(=O)(=O)N[C@H]2CC[C@H]3[C@@H]4CCc5cc(OS(=O)(=O)O)ccc5[C@H]4CC[C@]23C)cc1 .
Reply: -1

Task item: Also need C=C1CC[C@@H]2[C@](C)(COC(C)=O)[C@H](OC(C)=O)CC[C@@]2(C)[C@@H]1CC(Nc1ccc(S(=O)(=O)Nc2nccc(C)n2)cc1)C1=CCOC1=O (stereo partly drawn) , thanks.
Reply: -1

Task item: Lookup CCOP(=O)(OCC)C(NC(c1ccccc1)c1ccccc1)c1cccc2ccccc12 (stereo not drawn)
Reply: -1

Task item: Further, for CC(=O)O[C@@H]1CC2C(C)(C)CCCC2(C)C2=C1C(=O)C(C(C)C)=CC2=O (stereo partly drawn) ?
Reply: -1

Task item: Further, for CC1OC2CC(=O)OC2C2=C1C(=O)c1c(O)c3c(c(O)c1C2=O)C1CC(O)C3(O)C(C)O1 (stereo not drawn) ?
Reply: 1

Task item: Item: Oc1ccc(CCCCCCc2ccc(O)cc2)cc1
Reply: -1

Task item: What about c1cnc2[nH]cc(-c3csc(-c4cn(CCCCN5CCOCC5)c5ccccc45)n3)c2c1 ?
Reply: -1

Task item: Please do the same for C=C1C(=O)O[C@H]2[C@H]1CC/C(COC(=O)N1CCC[C@H]1C(=O)Nc1ccc(OC)c(C(N)=O)c1O)=C\CC[C@@]1(C)O[C@@H]21 as well.
Reply: -1
